# assay-info: solvent given as SMILES
# condition-description: in CC(C)=O
readout-type: log10 of fluorescence lifetime (log10 of the value in ns)
Would you kindly interpret these values as log10 of fluorescence lifetime expressed in ns?

Some solved cases for reference:
compound: CS1(C)C(/C=C/C2=C(c3ccc(C(=O)O)cc3)C(=C/C=C3/N(CCCCS(=O)(=O)[O-])c4ccccc4S3(C)C)/CCC2)=[N+](CCCCS(=O)(=O)[O-])c2ccccc21
readout-type: log10 of fluorescence lifetime
quantitative-result: 0.03

compound: C(=C\c1ccc(-c2ccc(/C=C/c3ccc(-n4c5ccccc5c5ccccc54)cc3)s2)s1)/c1ccc(-n2c3ccccc3c3ccccc32)cc1
readout-type: log10 of fluorescence lifetime
quantitative-result: 0.03

compound: COc1cc(N(c2ccccc2)c2ccc(C=C(C#N)C#N)c(OC)c2)ccc1C=C(C#N)C#N
readout-type: log10 of fluorescence lifetime
quantitative-result: -1.31

compound: COc1cc(N(c2ccc(C=C(C#N)C#N)c(OC)c2)c2ccc(C=C(C#N)C#N)c(OC)c2)ccc1C=C(C#N)C#N
readout-type: log10 of fluorescence lifetime
quantitative-result: -0.77

compound: Nc1ccc2c(C(F)(F)F)cc(=O)oc2c1
readout-type: log10 of fluorescence lifetime
quantitative-result: 0.70

compound: CCN(CC)c1ccc2cc(/C(Cl)=C/C=C/C(=C(C#N)C#N)c3ccc(N(c4ccccc4)c4ccccc4)cc3)c(=O)oc2c1
readout-type: log10 of fluorescence lifetime
quantitative-result: 0.18

compound: C#CCNC1=C2C=CC=[N+]2[B-](F)(F)n2cccc21
readout-type: log10 of fluorescence lifetime
quantitative-result: 0.69

compound: COc1nc(Nc2ccc3c4c(cccc24)C(=O)c2ccccc2-3)nc(OC)n1
readout-type: log10 of fluorescence lifetime
quantitative-result: 0.93

Q) Can you share its log10 of fluorescence lifetime? I mean this compound: COc1nc(Cl)nc(Nc2ccc3c4c(cccc24)C(=O)c2ccccc2-3)n1
A) 0.89

Q) // query log10 of fluorescence lifetime value for entry O=P1(c2ccccc2)C(c2cc(C(F)(F)F)cc(C(F)(F)F)c2)=Cc2c3ccc4cccc5ccc(c6cc(-c7ccccc7)n1c26)c3c45 (stereo not given)
A) 0.56

###

# assay-info: solvent given as SMILES
# condition-description: in C1CCOC1
Reported fluorescence lifetime by item:
Form entry: value (ns) — number only.

Q) Entry C[Si](C)(C)c1ccc(-c2ccc(-c3ccc(-c4ccc(-c5ccc([Si](C)(C)C)s5)cc4)c4nsnc34)cc2)s1 has what fluorescence lifetime?
A) 4.4

Q) I would be grateful if you could share the reported fluorescence lifetime for N#Cc1cc2ccccc2[nH]1 .
A) 2.9

Q) State the recorded fluorescence lifetime for this entry: NS(=O)(=O)c1ccc(N2N=C(c3ccc(O)cc3)CC2c2ccc(Cl)cc2)cc1 (configuration not stated)
A) 2.32

Q) Need fluorescence lifetime of Cn1c(/C=C/c2ccc(/C=C/c3nc4ccccc4[nH]3)cc2)[n+](C)c2ccccc21 , thanks.
A) 1.43

Q) Record request: fluorescence lifetime value, item C(=C\c1ccccn1)/c1ccc(N(c2ccc(/C=C/c3ccccn3)cc2)c2ccc(-c3nc4ccccc4nc3-c3ccc(N(c4ccc(/C=C/c5ccccn5)cc4)c4ccc(/C=C/c5ccccn5)cc4)cc3)cc2)cc1
A) 1.17

Q) Reported fluorescence lifetime for CN(C)c1ccc(/C=C/c2nc3c4ccccc4c4ccccc4c3[nH]2)cc1 : what is it?
A) 0.341

Q) Any idea what fluorescence lifetime was measured for CCCCCCCCCCn1nnc(-c2ccc(C#Cc3ccc(C#Cc4ccc(-c5nnn(CCCCCCCCCC)n5)cc4)c4nc5c6ccccc6c6ccccc6c5nc34)cc2)n1 ?
A) 3.66
